Kindly supply the reported MIC values for the records listed here.
System: Pseudomonas aeruginosa
assay-overview: Antibacterial activity against polymyxin-susceptible Pseudomonas aeruginosa FADD1-PA025 clinical isolates assessed as reduction in bacterial growth by broth microdilution method
Assay type: functional
Answers are plain numbers, in µg/mL.

given-smiles	target-under-test	u	result
CC[C@H](C)CCCCC(=O)N[C@@H](CCN)C(=O)N[C@H](C(=O)N[C@@H](CCN)C(=O)N[C@H]1CCNC(=O)[C@H](COC)NC(=O)[C@H](CCN)NC(=O)[C@H](CCN)NC(=O)[C@H](CC(C)C)NC(=O)[C@@H](Cc2ccccc2)NC(=O)[C@H](CCN)NC1=O)[C@@H](C)O	Pseudomonas aeruginosa	µg/mL	2

Next molecule, please.
Identify the reported MIC for the following entry. CC[C@H](C)CCCCC(=O)N[C@@H](CCN)C(=O)N[C@H](C(=O)N[C@@H](CCN)C(=O)N[C@H]1CCNC(=O)[C@H](Cc2ccccc2)NC(=O)[C@H](CCN)NC(=O)[C@H](CCN)NC(=O)[C@H](CC(C)C)NC(=O)[C@@H](Cc2ccccc2)NC(=O)[C@H](CCN)NC1=O)[C@@H](C)O
2

Where do the numbers come from? From ChEMBL document CHEMBL5316337.
